IC50 for Poly [ADP-ribose] polymerase tankyrase-2 (Homo sapiens) - collated from the literature.
Output spec: scalar in nM, unitless text.

A selection of reference data follows.
compound | target.under.test | outcome.measure | reading
COC(=O)NCCOC(C)(C)c1ccc(-c2nc3c(c(=O)[nH]2)CSCC3)cc1C | Poly [ADP-ribose] polymerase tankyrase-2 (Homo sapiens) | IC50 | 13
Cn1ncc2c(=O)[nH]c(N3CCN(c4ccc(C#N)cc4F)CC3)nc21 | Poly [ADP-ribose] polymerase tankyrase-2 (Homo sapiens) | IC50 | 76.5
COCCOC(C)(C)c1c(F)cc(-c2nc3c(c(=O)[nH]2)CSCC3)cc1F | Poly [ADP-ribose] polymerase tankyrase-2 (Homo sapiens) | IC50 | 50
CC(C)(O)CNC(=O)c1nc[nH]c1C(=O)N[C@H]1CC[C@H](C(=O)Nc2cc(C(F)(F)F)ccc2Cl)CC1 | Poly [ADP-ribose] polymerase tankyrase-2 (Homo sapiens) | IC50 | 280
Cn1ncc2c(=O)[nH]c(N3CCN(c4ccnc(Cl)c4Cl)CC3)nc21 | Poly [ADP-ribose] polymerase tankyrase-2 (Homo sapiens) | IC50 | 93.9

--- query ---
Would you mind telling me what IC50 value was observed for O=C(CCc1ccccc1)N(Cc1nc2c(c(=O)[nH]1)COCC2)Cc1ccc(Cl)s1 ? 318

* * *

IC50 for UniProt Q9H2K2 - collated from the literature.

A selection of reference data follows.
compound | IC50
O=c1[nH]c2c(c3cnccc13)COC(C1CCCC1)C2 (racemic) | 89.1 nM
Cn1cc(-c2ccc(-c3cc4cnccc4c(=O)[nH]3)cc2)cn1 | 300 to 3000 nM
O=C(N[C@H]1CC[C@@]2(CCN(c3ccc(F)cc3Cl)C2=O)CC1)c1cnn2ccc(N3CCCC3)nc12 | 3.3 nM

--- query ---
Would you mind telling me what IC50 value was observed for CNC(=O)c1[nH]cnc1C(=O)N[C@H]1CC[C@@](C)(C(=O)Nc2ccc(F)cc2Cl)CC1 ? > 10000 nM

* * *

pIC50 for Poly [ADP-ribose] polymerase tankyrase-2 (Homo sapiens, UniProt Q9H2K2) - collated from the literature.
Friendly reminder that pIC50 comes from taking -log10 of the concentration in mol/L.

A selection of reference data follows.
compound | pIC50
Cc1cccc2c(=O)[nH]c3c(c12)COC(C(C)(C)C)C3 (racemic) | 7.59
Cn1ncc2c(=O)[nH]c(N3CCN(c4ncccc4C#N)CC3)nc21 | 6.64
Cc1cc(C)n2ncc(C(=O)N[C@H]3CC[C@@]4(CCN(c5ccccc5Cl)C4=O)CC3)c2n1 | 8.24
Cn1ncc2c(=O)[nH]c(-c3ccc(C(F)(F)F)cc3)cc21 | 7.49

Would you mind telling me what pIC50 value was observed for O=c1[nH]c2c(c3ccccc13)COC(CCc1ccccc1)C2 (racemic) ? 7.28

Would you mind telling me what pIC50 value was observed for CNC(=O)c1nc[nH]c1C(=O)N[C@H]1CC[C@H](C(=O)Nc2cc(C(F)(F)F)ccc2Cl)CC1 ? 7.10

Would you mind telling me what pIC50 value was observed for O=C(N[C@H]1CC[C@@]2(CCN(c3ccc(F)cc3Cl)C2=O)CC1)c1[nH]cnc1C(=O)N1CCN(CC(F)(F)F)CC1 ? 6.57

Would you mind telling me what pIC50 value was observed for CCn1ccc2c(=O)[nH]c(N3CCN(c4ccccc4F)CC3)cc21 ? 6.60

Would you mind telling me what pIC50 value was observed for O=C(NC12CCC(C(=O)Nc3ccc(F)cc3Cl)(CC1)CC2)c1cnn2cccnc12 ? 6.34

Would you mind telling me what pIC50 value was observed for NC(=O)c1ccc2c(=O)[nH]c(-c3ccc(C(F)(F)F)cc3)cn12 ? 5.72

Would you mind telling me what pIC50 value was observed for Cc1cc(NC(=O)[C@H]2CC[C@H](NC(=O)c3[nH]cnc3C(=O)NCC(C)(C)O)CC2)c(Cl)cc1F ? 6.96

Would you mind telling me what pIC50 value was observed for Cn1ccc2c(=O)[nH]c(N3CCN(c4ccccc4F)CC3)cc21 ? 7.23

Would you mind telling me what pIC50 value was observed for CC(C)(C)OC(=O)N1CCC(C2Cc3[nH]c(=O)c4cccnc4c3CO2)CC1 (stereo not shown) ? 7.30

* * *

IC50 for Poly [ADP-ribose] polymerase tankyrase-2 (Homo sapiens) - collated from the literature.
Output spec: scalar in nM, unitless text.

A selection of reference data follows.
molecule | target.under.test | IC50, nM
O=c1[nH]c2c(c3ccccc13)COC(C1CCOCC1)C2 (racemic) | Poly [ADP-ribose] polymerase tankyrase-2 (Homo sapiens) | 36.8
Cc1cc(C(F)F)n2ncc(C(=O)N[C@H]3CC[C@]4(CCN(c5ccc(F)cc5Cl)C4=O)CC3)c2n1 | Poly [ADP-ribose] polymerase tankyrase-2 (Homo sapiens) | 670
COC[C@@H](C)NC(=O)c1nc[nH]c1C(=O)N[C@H]1CC[C@H](C(=O)Nc2c(F)cc(F)cc2Cl)CC1 | Poly [ADP-ribose] polymerase tankyrase-2 (Homo sapiens) | 280
O=C(N[C@H]1CC[C@@]2(CCN(c3ccc(F)cc3Cl)C2=O)CC1)c1c[nH]c2cccnc12 | Poly [ADP-ribose] polymerase tankyrase-2 (Homo sapiens) | 19
Cn1ncc2c(=O)[nH]c(N3CCN(c4ccc(F)cc4S(C)(=O)=O)CC3)cc21 | Poly [ADP-ribose] polymerase tankyrase-2 (Homo sapiens) | 45.1

Please provide the recorded IC50 for O=C(N[C@H]1CC[C@H](C(=O)N(CC2CC2)c2ccc(F)cc2Cl)CC1)c1cnn2cccnc12 , tested on Poly [ADP-ribose] polymerase tankyrase-2 (Homo sapiens). 9.2

Please provide the recorded IC50 for COc1cc(-c2nc3c(c(=O)[nH]2)CSCC3)ccc1B(O)O , tested on Poly [ADP-ribose] polymerase tankyrase-2 (Homo sapiens). 111

Please provide the recorded IC50 for Cc1ccnc2c(C(=O)N[C@H]3CC[C@@]4(CCN(c5ccc(F)cc5Cl)C4=O)CC3)cnn12 , tested on Poly [ADP-ribose] polymerase tankyrase-2 (Homo sapiens). 6.5

Please provide the recorded IC50 for O=c1[nH]c(-c2ccc(-c3cnc(OCCO)nc3)cc2)nc2c1CSCC2 , tested on Poly [ADP-ribose] polymerase tankyrase-2 (Homo sapiens). 21

Please provide the recorded IC50 for COCC(C)NC(=O)c1nc[nH]c1C(=O)N[C@H]1CC[C@@]2(CCN(c3cccc(Cl)c3)C2=O)CC1 (stereo partly shown) , tested on Poly [ADP-ribose] polymerase tankyrase-2 (Homo sapiens). 380

Please provide the recorded IC50 for Cc1cc(C(C)(C)C)n2ncc(C(=O)N[C@H]3CC[C@H](C(=O)Nc4ccc(F)cc4Cl)CC3)c2n1 , tested on Poly [ADP-ribose] polymerase tankyrase-2 (Homo sapiens). 2200

Please provide the recorded IC50 for CN1CC2(CCN(C(=O)c3nc[nH]c3C(=O)N[C@H]3CC[C@@]4(CCN(c5ccc(F)cc5Cl)C4=O)CC3)C2)C1 , tested on Poly [ADP-ribose] polymerase tankyrase-2 (Homo sapiens). 6.2

Please provide the recorded IC50 for O=C(NC12CCC(C(=O)Nc3ccc(F)cc3Cl)(CC1)CC2)c1cnc2cccnn12 , tested on Poly [ADP-ribose] polymerase tankyrase-2 (Homo sapiens). 330

Please provide the recorded IC50 for CNC(=O)c1nc[nH]c1C(=O)N[C@H]1CC[C@H](C(=O)Nc2ccc(F)cc2Br)CC1 , tested on Poly [ADP-ribose] polymerase tankyrase-2 (Homo sapiens). 27

Please provide the recorded IC50 for CC(C)C1Cc2[nH]c(=O)c3ccoc3c2CO1 (racemic) , tested on Poly [ADP-ribose] polymerase tankyrase-2 (Homo sapiens). 231

* * *

pIC50: −log10 of the molar value.
pIC50 for Poly [ADP-ribose] polymerase tankyrase-2 (Homo sapiens) - collated from the literature.

A selection of reference data follows.
compound | pIC50
CN1CCCc2c1nc(N1CCC3(CC1)C(=O)N(C)c1cc(C4CCC(O)CC4)cc(F)c13)[nH]c2=O (centres unmarked) | 6.70 to 7.70
CC(C)(C)C1Cc2[nH]c(=O)c3cccnc3c2CO1 (racemic) | 7.26

Please provide the recorded pIC50 for CN1c2ccccc2C(=O)NC1c1c[nH]nc1-c1cc(F)cc(F)c1 (centres unmarked) , tested on Poly [ADP-ribose] polymerase tankyrase-2 (Homo sapiens). 7.70 to 8.30

* * *

pIC50 for Poly [ADP-ribose] polymerase tankyrase-2 (Homo sapiens) - collated from the literature.
Friendly reminder that pIC50 comes from taking -log10 of the concentration in mol/L.

A selection of reference data follows.
compound | pIC50
O=C(CCc1ccccc1)N(Cc1nc2c(c(=O)[nH]1)COCC2)Cc1cncs1 | 5.46
CNC(=O)c1nc[nH]c1C(=O)N[C@H]1CC[C@@]2(CCCN(c3cc(C)c(F)cc3Cl)C2=O)CC1 | 7.33
CCC(=O)c1cc(F)c(N2CCN(c3nc4c(cnn4C)c(=O)[nH]3)CC2)c(F)c1 | 7.48

Would you mind telling me what pIC50 value was observed for COc1ccn2ncc(C(=O)N[C@H]3CC[C@@]4(CCN(c5ccc(F)cc5Cl)C4=O)CC3)c2n1 ? 8.32

Would you mind telling me what pIC50 value was observed for CN1CCN(c2ccn3ncc(C(=O)N[C@H]4CC[C@H](C(=O)Nc5ccc(F)cc5Cl)CC4)c3n2)CC1 ? 7.42

Would you mind telling me what pIC50 value was observed for O=C(NCC(F)(F)F)c1nc[nH]c1C(=O)N[C@H]1CC[C@@]2(CCN(c3cc(F)c(F)cc3Cl)C2=O)CC1 ? 8.66

Would you mind telling me what pIC50 value was observed for O=C(N[C@H]1CC[C@H](C(=O)Nc2ccc(F)cc2Cl)CC1)c1cnc2ccc(N3CCCC3)nn12 ? 7.51

Would you mind telling me what pIC50 value was observed for COCCOc1cc(F)c(F)c(N2CCN(c3nc4c(cnn4C)c(=O)[nH]3)CC2)c1 ? 7.33

Would you mind telling me what pIC50 value was observed for O=C(NCC1CCCO1)c1nc[nH]c1C(=O)N[C@H]1CC[C@H](C(=O)Nc2c(F)cc(F)cc2Cl)CC1 (stereo in doubt) ? 7.18

Would you mind telling me what pIC50 value was observed for Nc1nn2cccnc2c1C(=O)N[C@H]1CC[C@H](C(=O)Nc2ccc(F)cc2Cl)CC1 ? 6.30

Would you mind telling me what pIC50 value was observed for CCNC(=O)c1nc[nH]c1C(=O)N[C@H]1CC[C@@]2(CCN(c3ccccc3Cl)C2=O)CC1 ? 8.20

Would you mind telling me what pIC50 value was observed for O=C(NC1CC1)c1nc[nH]c1C(=O)N[C@H]1CC[C@@]2(CCN(c3cccc(Cl)c3)C2=O)CC1 ? 6.77
